# credit: patent US4340609A

Exercise: state measured Mean % Parasitemia for each of the compounds provided.
Tested on: plasmodium berghei
Assay: suppression of parasitemia in mice infected with plasmodium berghei
Assay type: in vivo
Conditions: mice, s.c., .20 mg/kg on days 1-3; 4th day
Structures can show the parent of a compound that is named as a salt.
Answers are plain numbers, in %.

Use the examples below as a reference point.
CNC(=N)NC(=O)Nc1c(C)cccc1Br [Compound B, hydrochloride] = 5.00
CCCN=C(NC)NC(=O)Nc1c(C)cccc1C [Compound D, hydrochloride] = 4.50
Cc1cccc(C)c1NC(=O)NC(=N)NC(C)C.Cl [Compound E] = 5.25
CCCNC(=O)NC(=N)Nc1c(Cl)cccc1Cl [Compound A] = 4.00

# evaluate next
Which measured Mean % Parasitemia belongs to CNC(=N)NC(=O)Nc1c(C)cc(Br)cc1Cl.Cl [Compound C] , tested on plasmodium berghei?
5.00
